# Species: Homo sapiens
# assay.notes: Inhibitory activity of Ca-ionophore-A23187-induced Leukotriene B4 (LTB4) release in human polymorphonuclear leukocytes
# Format: functional
# details: Homo sapiens

{"compound": "CCCOCC(Cc1ccc(F)cc1)Nc1nc2cc(C(C)C)ccc2o1 (stereo unspecified)", "IC50 (nM)": 170}
{"compound": "Cc1ccc2oc(N[C@H](CC3CCCCC3)c3ccccn3)nc2c1", "IC50 (nM)": 40}
{"compound": "CC(=O)Nc1ccc2oc(NC(CC3CCCCC3)c3ccccc3)nc2c1 (stereo unspecified)", "IC50 (nM)": 78}
{"compound": "Cc1cccc(C(CC2CCCCC2)Nc2nc3ccccc3o2)c1 (stereo unspecified)", "IC50 (nM)": 300}
{"compound": "CCOC(=O)C(Cc1ccccc1)Nc1nc2ccccc2s1 (stereo unspecified)", "IC50 (nM)": 360}
{"compound": "CN(C)S(=O)(=O)c1ccc2oc(NC(Cc3ccc(F)cc3)c3ccccn3)nc2c1 (stereo unspecified)", "IC50 (nM)": 50}

* * *

# Organism: Homo sapiens
# assay.notes: Inhibitory activity of Ca-ionophore-A23187-induced Leukotriene B4 (LTB4) release in human polymorphonuclear leukocytes
# Type: functional
# details: Homo sapiens
assay.readout: log10 IC50 (log10 of the value in nM)

{"molecule": "O=C(O)c1ccc2oc(NC(CC3CCCCC3)c3ccccc3)nc2c1 (stereo unspecified)", "log10 IC50": 2.18}
{"molecule": "CSCC(Cc1ccccc1)Nc1nc2cc(C(C)C)ccc2o1 (stereo unspecified)", "log10 IC50": 1.11}
{"molecule": "c1ccc(CC(Nc2nc3ccccc3s2)c2ccccc2)cc1 (stereo unspecified)", "log10 IC50": 2.23}
{"molecule": "CCOC(=O)C(Cc1csc(C)n1)Nc1nc2cc(C(C)C)ccc2o1 (stereo unspecified)", "log10 IC50": 1.20}
{"molecule": "CCOC(=O)C(Cc1ccc(Cl)cc1)Nc1nc2ccccc2s1 (stereo unspecified)", "log10 IC50": 2.30}
{"molecule": "CC(C)c1ccc2oc(N[C@H](CN3CCCCC3)c3ccccc3)nc2c1", "log10 IC50": 3.08}
{"molecule": "N#Cc1ccc2oc(NC(CC3CCCCC3)c3ccccc3)nc2c1 (stereo unspecified)", "log10 IC50": 1.18}
{"molecule": "COC(=O)[C@H](CC1CCCCC1)Nc1nc2ccccc2o1", "log10 IC50": 0.70}
{"molecule": "Cc1ccc2oc(N[C@@H](CC3CCCCC3)c3ccccn3)nc2c1 [ONTAZOLAST]", "log10 IC50": 0.00}
{"molecule": "COc1ccc(C(CC2CCCCC2)Nc2nc3ccccc3o2)cc1 (stereo unspecified)", "log10 IC50": 2.74}
{"molecule": "Clc1ccc2oc(NC(CN3CCSCC3)c3ccccc3)nc2c1 (stereo unspecified)", "log10 IC50": 1.68}

* * *

# Species on record: Homo sapiens
# assay.notes: Inhibitory activity of Ca-ionophore-A23187-induced Leukotriene B4 (LTB4) release in human polymorphonuclear leukocytes at the dose of 3 micro M concentration
# Format: functional
So basically: Inhibition at 40% or higher? That is yes. Lower than 40%? That is no.

{"compound": "O=[N+]([O-])c1ccc2oc(NC(Cc3ccc(O)cc3)c3ccccn3)nc2c1 (stereo unspecified)", "group": "no"}
{"compound": "O=C(O)C(Cc1ccccc1)Nc1nc2ccccc2s1 (stereo unspecified)", "group": "no"}
{"compound": "CCOC(=O)C(Cc1ccccc1)Cc1nc2ccccc2s1 (stereo unspecified)", "group": "yes"}
{"compound": "CCOC(=O)C(Nc1nc2ccccc2s1)c1ccccc1 (stereo unspecified)", "group": "yes"}
{"compound": "NC(=O)c1ccc2oc(NC(CC3CCCCC3)c3ccccc3)nc2c1 (stereo unspecified)", "group": "no"}
{"compound": "O=S1(=O)CCN(CC(Nc2nc3cc(Cl)ccc3o2)c2ccccc2)CC1 (stereo unspecified)", "group": "yes"}

* * *

Readings of IC50 for the listed compounds
# Species: Homo sapiens
# assay.notes: Inhibitory activity of Ca-ionophore-A23187-induced Leukotriene B4 (LTB4) release in human polymorphonuclear leukocytes
# Type: functional
# details: Homo sapiens

{"compound": "Cc1ccc2oc(NC(CC3CCCCC3)c3ccccn3)nc2c1 (stereo not given)", "IC50 (nM)": 4}
{"compound": "c1ccc(CC(Nc2nc3ccccc3o2)c2ccccc2)cc1 (stereo not given)", "IC50 (nM)": 51}
{"compound": "CCOC(=O)C(Cc1ccc(Cl)cc1)Nc1nc2ccc(OC)cc2s1 (stereo not given)", "IC50 (nM)": 230}
{"compound": "CC(C)c1ccc2oc(NC(CN3CCOCC3)c3ccccc3)nc2c1 (stereo not given)", "IC50 (nM)": 52}
{"compound": "O=[N+]([O-])c1ccc2oc(NC(Cc3ccc(F)cc3)c3ccccn3)nc2c1 (stereo not given)", "IC50 (nM)": 16}
{"compound": "Cc1ccc2oc(NC(CC3CCCCC3)c3ccncc3)nc2c1 (stereo not given)", "IC50 (nM)": 190}
{"compound": "COc1ccc(CC(Nc2nc3cc([N+](=O)[O-])ccc3o2)c2ccccn2)cc1 (stereo not given)", "IC50 (nM)": 14}
{"compound": "CC(C)c1ccc2oc(NC(Cc3cccc(Cl)c3)c3ccccn3)nc2c1 (stereo not given)", "IC50 (nM)": 5}
{"compound": "Cc1ccc2oc(NC(CC3CCCCC3)c3cccnc3)nc2c1 (stereo not given)", "IC50 (nM)": 20}
{"compound": "CCOC(=O)C(Cc1ccccc1)Nc1nc2ccc(C(C)C)cc2o1 (stereo not given)", "IC50 (nM)": 220}
{"compound": "CCCCc1ccc2nc(NC(Cc3ccc(Cl)cc3)C(=O)OCC)sc2c1 (stereo not given)", "IC50 (nM)": 180}
{"compound": "CC(C)c1ccc2oc(N[C@@H](CN3CCCCC3)c3ccccc3)nc2c1", "IC50 (nM)": 100}
{"compound": "CCOC(=O)C(Cc1ccc(F)cc1)Nc1nc2ccccc2s1 (stereo not given)", "IC50 (nM)": 330}
{"compound": "COC(=O)[C@@H](CC1CCCCC1)Nc1nc2ccccc2o1", "IC50 (nM)": 100}
{"compound": "CNC(=O)C(CC1CCCCC1)Nc1nc2cc(C)ccc2o1 (stereo not given)", "IC50 (nM)": 72}
{"compound": "CC(C)c1ccc2oc(NC(CC3CCCCC3)c3ccccc3)nc2c1 (stereo not given)", "IC50 (nM)": 6}
{"compound": "CCOC(=O)C(Cc1ccc(Cl)cc1)Nc1nc2ccc(C(C)C)cc2s1 (stereo not given)", "IC50 (nM)": 330}
{"compound": "COc1ccc2oc(NC(Cc3ccc(F)cc3)c3ccccn3)nc2c1 (stereo not given)", "IC50 (nM)": 11}
{"compound": "CS(=O)(=O)Nc1ccc2oc(NC(CC3CCCCC3)c3ccccc3)nc2c1 (stereo not given)", "IC50 (nM)": 160}
{"compound": "CCOC(=O)c1ccc2oc(NC(Cc3ccc(F)cc3)c3ccccn3)nc2c1 (stereo not given)", "IC50 (nM)": 27}
{"compound": "CCOC(=O)C(Cc1ccccc1)Nc1nc2cc(CC)ccc2s1 (stereo not given)", "IC50 (nM)": 12}
{"compound": "CCOC(=O)C(Cc1ccccc1)Nc1nc2cc(C(C)C)ccc2o1 (stereo not given)", "IC50 (nM)": 0.5}
{"compound": "CCOC(=O)[C@H](Cc1ccccc1)Nc1nc2ccccc2o1", "IC50 (nM)": 150}
{"compound": "Fc1ccc(C(CC2CCCCC2)Nc2nc3ccccc3o2)cc1 (stereo not given)", "IC50 (nM)": 170}
{"compound": "Cc1noc(C(Cc2ccc(F)cc2)Nc2nc3cc(C(C)C)ccc3o2)n1 (stereo not given)", "IC50 (nM)": 440}
{"compound": "CN(C)C(=O)c1ccc2oc(NC(CC3CCCCC3)c3ccccc3)nc2c1 (stereo not given)", "IC50 (nM)": 170}
{"compound": "Fc1ccc(CC(Nc2nc3cc(F)ccc3o2)c2ccccn2)cc1 (stereo not given)", "IC50 (nM)": 21}
{"compound": "CC(C)c1ccc2oc(NC(Cc3ccc(Cl)cc3)c3ccccn3)nc2c1 (stereo not given)", "IC50 (nM)": 29}
{"compound": "COCC(Cc1ccc(F)cc1)Nc1nc2cc(C(C)C)ccc2o1 (stereo not given)", "IC50 (nM)": 17}
{"compound": "Cc1nc(CC(Nc2nc3cc(C(C)C)ccc3o2)c2ccccn2)cs1 (stereo not given)", "IC50 (nM)": 29}
{"compound": "CCOC(=O)C(Cc1ccccc1)N(C)c1nc2ccccc2s1 (stereo not given)", "IC50 (nM)": 1000}
{"compound": "CC(=O)C(Cc1ccccc1)Nc1nc2ccc(C(C)C)cc2o1 (stereo not given)", "IC50 (nM)": 350}
{"compound": "Clc1ccccc1C(CC1CCCCC1)Nc1nc2ccccc2o1 (stereo not given)", "IC50 (nM)": 80}
{"compound": "CC(C)c1ccc2oc(NC(Cc3ccc(F)cc3)c3ccccn3)nc2c1 (stereo not given)", "IC50 (nM)": 12}
{"compound": "Fc1ccc(CC(Nc2nc3cc(F)c(F)cc3o2)c2ccccn2)cc1 (stereo not given)", "IC50 (nM)": 30}
{"compound": "CCOC(=O)[C@@H](Cc1ccccc1)Nc1nc2ccccc2o1", "IC50 (nM)": 1500}
{"compound": "CCOC(=O)c1ccc2oc(NC(CC3CCCCC3)c3ccccc3)nc2c1 (stereo not given)", "IC50 (nM)": 45}
{"compound": "Fc1ccc(CC(Nc2nc3cc(C(F)(F)F)ccc3o2)c2ccccn2)cc1 (stereo not given)", "IC50 (nM)": 8}
{"compound": "CCOCC(Cc1ccc(F)cc1)Nc1nc2cc(C(C)C)ccc2o1 (stereo not given)", "IC50 (nM)": 41}
{"compound": "Clc1ccc2oc(NC(Cc3ccccc3)c3ccccc3)nc2c1 (stereo not given)", "IC50 (nM)": 23}
{"compound": "CCOC(=O)C(Cc1ccccc1)Nc1nc2ccc(CC)cc2s1 (stereo not given)", "IC50 (nM)": 240}
{"compound": "CCOC(=O)C(CCc1ccccc1)Nc1nc2ccccc2s1 (stereo not given)", "IC50 (nM)": 520}
{"compound": "COc1ccc2oc(NC(Cc3ccccc3)c3ccccc3)nc2c1 (stereo not given)", "IC50 (nM)": 9}
{"compound": "CCOC(=O)C(Cc1ccc(Br)cc1)Nc1nc2ccccc2s1 (stereo not given)", "IC50 (nM)": 150}
{"compound": "CCOC(=O)[C@H](Cc1ccccc1)Nc1nc2ccccc2s1", "IC50 (nM)": 230}
